Catalogue of binders with associated absorbance at 450 nm
- tested.system: T1, Monkey 4-1BB extracellular region recombinant protein (his-tag) (monkey)
- T1 construct: extracellular domain; also called Monkey4-1BB, his-tag
- assay: ELISA, coated monkey 4-1BB-his 200 ng/well; antibody 0.12 µg/ml
Lab note: jot the number down without any unit.

137-18 VHH-hFc recombinant antibody (Fc fusion, VHH fragment inserted into vector pFclG with human IgG1 Fc tag, expressed in HEK293F; also called CD137-18; not shown: human IgG1 Fc tag of the eukaryotic expression vector pFclG) QVQLVESGGGLVHPGGSLRLSCAASGFIFSLYTMSWVRQAPGKGLEWVSDINSGGDSTDYADSVKGRFTISRDNAKSTLYLQMNSLKPEDTAVYYCAKDYPLGQREDYWGQGTQVTVSS    0.433

Moving on to another binder below.
Field absorbance at 450 nm (entry 137-16 VHH-hFc recombinant antibody (Fc fusion, VHH fragment inserted into vector pFclG with human IgG1 Fc tag, expressed in HEK293F; Preparation had non-specific bands, purity >70%; also called CD137-16; not shown: human IgG1 Fc tag of the eukaryotic expression vector pFclG) EVQLVESGGGLVQAGASLTLSCVISGRTFSSYAMGWYRQAPGKERAFVGTITWNNDIIYSDSVKGRFTISTDDGKNTMYLQMNNLKPEDTAVYYCAAYSVPYGDFCTLNYDLMDYWGKGTLVTVSS ) reads 1.17
